biological target: T1, serum purified human Complement Factor D (human, UniProt P00746 26-253); assay: SPR Biacore, antibody on protein A chip, single cycle kinetics, 37 C
T1 construct: Serum purified protein flowed over the captured antibodies; also called CFD; human CFD
T1 sequence (P00746 26-253): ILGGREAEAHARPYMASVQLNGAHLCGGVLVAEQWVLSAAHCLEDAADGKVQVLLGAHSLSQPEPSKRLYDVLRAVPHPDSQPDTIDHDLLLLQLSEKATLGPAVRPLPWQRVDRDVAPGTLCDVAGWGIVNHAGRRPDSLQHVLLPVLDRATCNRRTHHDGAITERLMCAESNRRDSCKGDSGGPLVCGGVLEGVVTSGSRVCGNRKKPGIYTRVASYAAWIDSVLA
quantity.name: kon (M⁻¹ s⁻¹)
Numbers only; they are read as M⁻¹ s⁻¹.

Guide cases for kon, answers given:
>>> quantitative_readout("KCD119 TAF / KCD119 TAF (antibody, V domains shown, Humanized KCD119; tested as full antibody captured on protein A; also called D19 TAF) VH: EVQLVESGGGLVQPGGSLRLSCAASGYTFTDYYMNWVRQAPGKGLEWIGDINPNTGDTSYNADFKRRFTFSLDTSKSTAYLQMNSLRAEDTAVYYCTREGPSFAYWGQGTLVTVSS VL: DIQLTQSPSSLSASVGDRVTITCRSSQTIVHSNGDTYLEWYQQKPGKAPNLLIYKVSNRFSGVPSRFSGSGSGTDFTLTISSLQPEDFATYYCFQGSHVPPTFGQGTKVEIK")
"1.26e+07"
>>> quantitative_readout("34I54I59D84S / 54R101V (antibody, human IgG1, V domains shown, Human IgG1 kappa; also called OG1965) VH: EVQLVESGGGLVQPGGSLRLSCAASGYTFTDYYINWVRQAPGKGLEWIGDINPITGDTDYNADFKRRFTFSLDTSKSTAYLQMSSLRAEDTAVYYCTREGPSFAYWGQGTLVTVSS VL: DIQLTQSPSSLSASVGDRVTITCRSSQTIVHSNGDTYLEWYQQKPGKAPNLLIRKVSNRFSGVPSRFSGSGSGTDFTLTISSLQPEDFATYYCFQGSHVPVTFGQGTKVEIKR")
"4e+07"
>>> quantitative_readout("31S34I54I59D84S / 54R101V (antibody, V domains shown, KCD119 TAF variant; also called 3I534I54I59D84S / 54R101V) VH: EVQLVESGGGLVQPGGSLRLSCAASGYTFTSYYINWVRQAPGKGLEWIGDINPITGDTDYNADFKRRFTFSLDTSKSTAYLQMSSLRAEDTAVYYCTREGPSFAYWGQGTLVTVSS VL: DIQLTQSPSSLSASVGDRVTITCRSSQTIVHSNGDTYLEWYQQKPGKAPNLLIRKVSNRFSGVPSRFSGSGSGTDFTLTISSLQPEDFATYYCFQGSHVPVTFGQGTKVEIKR")
"3.5e+07"

Note: attention shifts to another entry.
In plain terms, 34I54I59D84S / 54G101V (antibody, V domains shown, also called 34I54I59D845 / 54G101V) VH: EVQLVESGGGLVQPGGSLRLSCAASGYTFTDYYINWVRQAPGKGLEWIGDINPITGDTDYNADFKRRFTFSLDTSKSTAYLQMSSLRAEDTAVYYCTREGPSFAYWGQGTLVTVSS VL: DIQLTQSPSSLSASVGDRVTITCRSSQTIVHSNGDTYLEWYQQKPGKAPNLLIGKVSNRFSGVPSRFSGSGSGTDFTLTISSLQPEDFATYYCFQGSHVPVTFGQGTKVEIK has a documented kon of 1.45e+07
